Below, pIC50 values reported for human mPGES-1 (Homo sapiens) across several publications.
pIC50: −log10 of the molar value.
readout.label: pIC50

Consider the following illustrative entries.
chem.smiles | result.number
CC(C)COCc1ccc(Cl)c(-c2nc(O)nc(-c3ccc(C#CC4CCCCC4)cc3)n2)c1 | 7.39
Cc1cccc(C)c1-c1nc(O)nc(-c2ccc(Cl)cc2)n1 | 6.60
CC1(C)CN(Cc2ccc(Cl)c(-c3nc(O)nc(-c4ccccc4)n3)c2)C1=O | 6.58
CCc1nc2c(C(=O)Nc3cccc(Cl)c3C)cc(NC(=O)c3ccccc3C(F)(F)F)cc2o1 | 7.63

(1) Cc1cc(Cl)c(-c2nc(O)nc(-c3ccc(OCC4CC4)cc3)n2)cc1CNC(=O)C(C)(C)C(F)(F)F
(2) CC(C)Oc1ccc(-c2c(C(=O)O)n(-c3ccc(N(C)C)cc3)c3ccc(-c4ccc(C(C)(C)C)cc4)cc23)cc1
(3) Oc1nc(-c2ccc(C(F)(F)F)cc2)nc(-c2c(Cl)cccc2OCc2ccncc2)n1
(4) NS(=O)(=O)c1ccccc1NS(=O)(=O)CCc1ccc(C#Cc2ccc(C(F)(F)F)cc2)nc1
Sort low-to-high on pIC50, please. Would you mind listing the labels in the order requested?
2, 3, 4, 1
(2: 6.68, 3: 7.04, 4: 7.51, 1: 9.10)

###

The following molecules were reported with IC50 values on human mPGES-1 (Homo sapiens, UniProt O14684) in different studies.
Sequence (O14684 whole entry): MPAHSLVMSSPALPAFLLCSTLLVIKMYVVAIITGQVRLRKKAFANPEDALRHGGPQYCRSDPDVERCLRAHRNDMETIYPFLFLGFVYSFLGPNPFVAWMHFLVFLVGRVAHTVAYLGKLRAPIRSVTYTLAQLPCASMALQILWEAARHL
readout.label: IC50 (µM)

chem.smiles | system.name | unit.descriptor | IC50
CC(C)(O)c1cc2cc(C(=O)NS(=O)(=O)c3ccccc3S(N)(=O)=O)ccc2o1 | human mPGES-1 (Homo sapiens, UniProt O14684) | µM | 21
Cc1c(CNC(=O)C(C)(C)C)ccc(Cl)c1-c1nc(O)nc(-c2ccc(C(F)(F)F)cc2)n1 | human mPGES-1 (Homo sapiens, UniProt O14684) | µM | 0.001
NS(=O)(=O)c1ccccc1S(=O)(=O)NC(=O)c1ccc(C#CC2CCCC2)c(OCC(F)F)c1 | human mPGES-1 (Homo sapiens, UniProt O14684) | µM | 0.014
CC(C)(CC(F)(F)F)C(=O)NCc1ccc(Cl)c(-c2nc(O)nc(-c3ccc(OCC4CC4)cc3)n2)c1 | human mPGES-1 (Homo sapiens, UniProt O14684) | µM | 0.0011
COCc1nc2c(C(=O)Nc3ccccc3F)cc(NC(=O)c3ccccc3C(F)(F)F)cc2[nH]1 | human mPGES-1 (Homo sapiens, UniProt O14684) | µM | 0.0203

(P) CSc1ccc(/C=C/S(=O)(=O)Nc2ccc(F)cc2S(N)(=O)=O)cc1
(Q) NS(=O)(=O)c1ccccc1NS(=O)(=O)CCc1ccccc1
(R) Oc1nc(-c2ccc(C#Cc3cccc(C(F)(F)F)c3)cc2)nc(-c2c(OCc3ccccn3)cccc2C(F)(F)F)n1
(S) NS(=O)(=O)c1ccccc1NS(=O)(=O)/C=C/c1ccc(C(F)(F)F)cc1
# rank_down: sort by IC50, max first Dear reader, please state the labels in the requested order.
Q, S, P, R
(Q: 9.8 µM, S: 0.67 µM, P: 0.22 µM, R: 0.018 µM)

###

The compounds below each have a reported IC50 tested on human mPGES-1 (Homo sapiens); the values come from various publications.
readout.label: IC50 (nM)

(I) CC1(COc2ccc(-c3nc(O)nc(-c4cc(CNC(=O)C(C)(C)C(F)(F)F)ccc4Cl)n3)cc2)CCC1
(II) NS(=O)(=O)c1c(F)cccc1NS(=O)(=O)/C=C/c1ccccc1F
(III) COCCn1c(-c2ccc(C(F)(F)F)cc2)cc2cc(NC(=O)c3cc(CNC(=O)C(C)(C)F)cnc3C(F)F)ccc21
(IV) CC(C)Oc1ccc(-n2c(C(=O)O)cc3c(-c4ccc(C(F)(F)F)cc4)nc(Cl)cc32)cc1
Rank by decreasing IC50 the items listed here. Order the labels as requested and list them.
II, IV, III, I

###

Several reports have described pIC50 for human mPGES-1 (Homo sapiens, UniProt O14684); a selection of those results is presented here.
pIC50: −log10 of the molar value.
readout.label: pIC50

(a) CC(C)C#Cc1ccc(C(=O)NS(=O)(=O)c2ccccc2S(N)(=O)=O)cc1COCC(F)(F)F
(b) Cc1ccc(COc2cccc(Cl)c2-c2nc(O)nc(-c3ccc(C(F)(F)F)cc3)n2)cc1
(c) CC(C)Oc1ccc(-c2nc(O)nc(-c3cc(CNC(=O)C(C)(C)C)ccc3Cl)n2)cc1
(d) CN(CC(=O)O)C(=O)c1cc2cc(-c3ccc(C(C)(C)C)cc3)ccc2n1-c1ccc(OC2CCCC2)cc1
# rank by pIC50, ascending (min first) Give me the labels in the order the question wants.
d, a, b, c
(d: 6.13, a: 7.00, b: 7.74, c: 9.10)

###

What follows is literature data on IC50 for human mPGES-1 (Homo sapiens).
readout.label: IC50 (nM)

compound | IC50, nM
Cn1cnc2c(C(=O)NC3CCCCC3)cc(NC(=O)c3ccccc3C(F)(F)F)cc21 | 270
Oc1ccc(Cl)c(-c2nc(O)nc(-c3ccc(C(F)(F)F)cc3)n2)c1 | 652

(P) COCc1nc2c(C(=O)Nc3ccc(OC)cc3)cc(NC(=O)c3ccccc3C(F)(F)F)cc2[nH]1
(Q) CC(C)(C)c1ccc(-c2ccc3c(c2)cc(C(=O)NCC(=O)O)n3-c2ccc(OC3CCCC3)cc2)cc1
(R) COc1c(C#CC(C)(C)C)ccc(C(=O)NS(=O)(=O)c2ccccc2S(N)(=O)=O)c1F
(S) NS(=O)(=O)c1cc(F)ccc1NS(=O)(=O)/C=C/c1cccc(Cl)c1
(T) Oc1nc(-c2ccc(C#CC3CCCC3)cc2)nc(-c2c(Cl)cccc2OCc2ccccn2)n1
Hey, quick one: sort these by IC50, low to high? Please list each label once, in the requested order.
T, P, R, Q, S

(I) NS(=O)(=O)c1ccccc1S(=O)(=O)NC(=O)c1cccc(COCC(F)(F)C(F)F)c1
(II) COc1cc(C(=O)NS(=O)(=O)c2ccccc2S(N)(=O)=O)cc(OC)c1-c1cc2ccccc2o1
Which has the smaller recorded IC50, I or II ? Please reply using the label of the selected record.
II

(P) NS(=O)(=O)c1ccccc1NS(=O)(=O)c1ccc(C2CCCCC2)cc1
(Q) COc1cc(C(=O)NS(=O)(=O)c2ccccc2S(N)(=O)=O)cnc1C#CC1CCCCC1
(R) NS(=O)(=O)c1ccccc1NS(=O)(=O)c1cccc(Cl)c1F
hey, can you rank those compounds up there by IC50? biggest number first please A ranking is expressed here by listing the labels in the requested order.
P, R, Q
(P: 1700 nM, R: 380 nM, Q: 12 nM)

(I) NS(=O)(=O)c1ccccc1NS(=O)(=O)CCc1ccc2ccccc2c1
(II) CCCc1c(C(=O)NS(=O)(=O)c2ccccc2S(N)(=O)=O)cnn1-c1cc(Cl)cc(Cl)c1
(III) CC(C)CCOc1ccc(-c2nc(O)nc(-c3cc(CNC(=O)C(C)(C)C(F)(F)F)ccc3Cl)n2)cc1
Ascending by IC50, please: list the compounds accordingly. Write the labels in rank order as requested.
III, I, II
(III: 5.9 nM, I: 490 nM, II: 1500 nM)

(1) O=C(Nc1cc(C(=O)NCC2(O)CCCCC2)c2nc[nH]c2c1)c1ccccc1C(F)(F)F
(2) CC(Cc1ccc(Cl)cc1)S(=O)(=O)Nc1ccccc1S(N)(=O)=O (centres unmarked)
// pick larger IC50 from pair: 1 vs 2 Let me know the label of the one you choose.
1

###

pIC50: −log10 of the molar value.
// note: pIC50 values for human mPGES-1 (Homo sapiens, UniProt O14684) were reported in different studies
readout.label: pIC50

Some compounds with known pIC50 results, for comparison:
compound | result.number
Cc1nc(-c2cc3ccccc3o2)sc1C(=O)NS(=O)(=O)c1ccccc1S(N)(=O)=O | 7.02
Oc1nc(-c2ccc(OCC3CCCCC3)cc2)nc(-c2c(Cl)cccc2OCc2ccccn2)n1 | 8.43
NS(=O)(=O)c1ccccc1S(=O)(=O)NC(=O)c1csc2ccccc12 | 5.66
Cc1cccc(COc2cccc(C(F)(F)F)c2-c2nc(O)nc(-c3ccc(C#Cc4ccccc4)nc3)n2)n1 | 8.77

(A) Cc1cc(C#CC2CCCC2)ccc1C(=O)NS(=O)(=O)c1ccccc1S(N)(=O)=O
(B) NC(=O)c1ccc(NS(=O)(=O)c2cccc(-c3ccc(Cl)c(Cl)c3)c2)c(S(N)(=O)=O)c1
Consider A and B . Which of these has its pIC50 at a higher number? // caller expects the label of the chosen entry
A
(A: 7.07, B: 5.43)

###

Compiled record: IC50 values for human mPGES-1 (Homo sapiens, UniProt O14684) across several sources.
readout.label: IC50 (µM)

(P) Cc1ccc(NS(=O)(=O)/C=C/c2ccc(Br)cc2)c(S(N)(=O)=O)c1
(Q) CC(C)(C)COc1ccc(-c2nc(O)nc(-c3cc(CO)ccc3C(F)(F)F)n2)cc1
Hi, I'm comparing P with Q and wondering which one has the bigger number for IC50. Any idea? Write down the label of the entry you select.
P
(P: 0.68 µM, Q: 0.0043 µM)

(P) CC(C)(C)c1ccc(-c2ccc3c(c2)cc(C(=O)Nn2cnnc2)n3-c2ccc(OC3CCCC3)cc2)cc1
(Q) CC(C(=O)NCc1ccc(Cl)c(-c2nc(O)nc(-c3ccc(OCC4CC4)cc3)n2)c1)(C(F)(F)F)C(F)(F)F
In the pair P and Q , the larger recorded IC50 belongs to which? Your answer should be the label of the entry you select.
P
(P: 0.55 µM, Q: 0.002 µM)
